Test name: Maximum tolerated dose (MTD) study in healthy mice
Condition description: female, BALB/c, mouse, in vivo, iv; single i.v. dose, limit <5% body weight loss; read-out: MTD for docetaxel in mice
Measured attribute: MTD at 7 days (mg/kg)
Write it as a number; the unit mg/kg goes unstated.

## Input Dear colleague, please send me the reported MTD at 7 days for CC(=O)O[C@@]12CO[C@@H]1C[C@H](O)[C@@]1(C)C(=O)[C@H](O)C3=C(C)[C@@H](OC(=O)[C@H](O)[C@@H](NC(=O)OC(C)(C)C)c4ccccc4)C[C@@](O)([C@@H](OC(=O)c4ccccc4)[C@H]21)C3(C)C [DTX, Docetaxel] when you can.
## Output 40

Entry source: patent US8591877B2
